Where do the numbers come from? From the supplement of paper PMC12764529.

experimental details: folding stability dG unfold (combined trypsin and chymotrypsin); higher = more stable
Each entry gets condition not met if its folding stability dG unfold stays under 2 kcal/mol, and condition met if its folding stability dG unfold is 2 kcal/mol or above.

>>> assigned_category("SAGGSAGGSAGGMRTFPSESLETLPENGLRKKTLTVTYVPPDNPERSYVETEVEIIPSEVSAGGSAGGSAGG [r17_241_JUSTAS]")
"condition not met"
>>> assigned_category("SHPDEFPKELVDAIAKAFPNIKRIEVEPLPDKFVLLKVEFIDGDGEGRVAFAVPTPDGETALHEYLVRNPSA [r9_678_TrMRF]")
"condition not met"
>>> assigned_category("SAGGSAGGSMVVTERSVRPVPRLVRTSDPSTGSSSVHLDPGAVETVRVIEEPPTPELLANTGASAGGSAGGS [r20_172_JUSTAS]")
"condition not met"
>>> assigned_category("SAGGSAIKPGDPYVRIKFRMGNEPMEFTIPAEKIKKITVDDPDDQVTIRFPGNGRKFPMKLEEVEISAGGSA [r15_495_TrROS]")
"condition not met"

Problem: Hi, just wondering whether SAGGSADDVKIKVEYERNPENGYGQITVEVEDPDGKDLKVEIMFPNMTPEEMEKQAKDIAKEIAKKSAGGSA [r15_526_TrROS] shows folding stability dG unfold of 2 kcal/mol or higher.
Result: condition not met
